# credit: the supplement of paper PMC5998384

Record form. Attribute: thermal stability score. Fill in for each entry.
# System: HeLa Kyoto
# procedureText: thermal stability score vs G1/S (z-score of summed log2 fold changes over temperatures); higher = more thermally stable than in G1/S
# assayConditions: cell cycle stage: mitosis
One number for each entry.

MGGGWWWARAARLARLRFRRSLLPPQRPRSGGARGSFAPGHGPRAGASPPPVSELDRADAWLLRKAHETAFLSWFRNGLLASGIGVISFMQSDMGREAAYGFFLLGGLCVVWGSASYAVGLAALRGPMQLTLGGAAVGAGAVLAASLLWACAVGLYMGQLELDVELVPEDDGTASAEGPDEAGRPPPE [TMEM160] : -1.47

Inquiry: Kindly state the measured thermal stability score obtained for MSFLKSFPPPGPAEGLLRQQPDTEAVLNGKGLGTGTLYIAESRLSWLDGSGLGFSLEYPTISLHALSRDRSDCLGEHLYVMVNAKFEEESKEPVADEEEEDSDDDVEPITEFRFVPSDKSALEAMFTAMCECQALHPDPEDEDSDDYDGEEYDVEAHEQGQGDIPTFYTYEEGLSHLTAEGQATLERLEGMLSQSVSSQYNMAGVRTEDSIRDYEDGMEVDTTPTVAGQFEDADVDH [CLNS1A] with HeLa Kyoto.
Reply text: -0.57

---

# System: HeLa Kyoto
# procedureText: thermal stability score vs G1/S (z-score of summed log2 fold changes over temperatures); higher = more thermally stable than in G1/S
# assayConditions: cell cycle stage: early G1 (4.5 h after nocodazole release)
assayMetric: thermal stability score
Numbers only.

MGNGGRSGLQQGKGNVDGVAATPTAASASCQYRCIECNQEAKELYRDYNHGVLKITICKSCQKPVDKYIEYDPVIILINAILCKAQAYRHILFNTQINIHGKLCIFCLLCEAYLRWWQLQDSNQNTAPDDLIRYAKEWDFYRMFAIAALEQTAYFIGIFTFLWVERPMTAKKKPNFILLLKALLLSSYGKLLLIPAVIWEHDYTSVCLKLIKVFVLTSNFQAIRVTLNINRKLSFLAVLSGLLLESIMVYFFQSMEWDVGSDYAIFKSQDF [ARV1] : -0.687

Consider the additional sequence presented here.
Inquiry: What measured thermal stability score goes with MSEGDSVGESVHGKPSVVYRFFTRLGQIYQSWLDKSTPYTAVRWVVTLGLSFVYMIRVYLLQGWYIVTYALGIYHLNLFIAFLSPKVDPSLMEDSDDGPSLPTKQNEEFRPFIRRLPEFKFWHAATKGILVAMVCTFFDAFNVPVFWPILVMYFIMLFCITMKRQIKHMIKYRYIPFTHGKRRYRGKEDAGKAFAS [RER1] ?
Reply text: -0.257

---

Record form. Attribute: melting temperature. Fill in for each entry.
# Test system: HeLa Kyoto
# procedureText: melting temperature (median over replicates), in situ; higher = more thermally stable
# assayConditions: cell cycle stage: mitosis
One number for each entry, in °C.

Recorded results for 9 sequences are shown here.
MASSDIQVKELEKRASGQAFELILSPRSKESVPEFPLSPPKKKDLSLEEIQKKLEAAEERRKSHEAEVLKQLAEKREHEKEVLQKAIEENNNFSKMAEEKLTHKMEANKENREAQMAAKLERLREKDKHIEEVRKNKESKDPADETEAD [STMN1] : 64.1
MAEPLQPDPGAAEDAAAQAVETPGWKAPEDAGPQPGSYEIRHYGPAKWVSTSVESMDWDSAIQTGFTKLNSYIQGKNEKEMKIKMTAPVTSYVEPGSGPFSESTITISLYIPSEQQFDPPRPLESDVFIEDRAEMTVFVRSFDGFSSAQKNQEQLLTLASILREDGKVFDEKVYYTAGYNSPVKLLNRNNEVWLIQKNEPTKENE [HEBP2] : 53.6
MAASGPGCRSWCLCPEVPSATFFTALLSLLVSGPRLFLLQQPLAPSGLTLKSEALRNWQVYRLVTYIFVYENPISLLCGAIIIWRFAGNFERTVGTVRHCFFTVIFAIFSAIIFLSFEAVSSLSKLGEVEDARGFTPVAFAMLGVTTVRSRMRRALVFGMVVPSVLVPWLLLGASWLIPQTSFLSNVCGLSIGLAYGLTYCYSIDLSERVALKLDQTFPFSLMRRISVFKYVSGSSAERRAAQSRKLNPVPGSYPTQSCHPHLSPSHPVSQTQHASGQKLASWPSCTPGHMPTLPPYQPASGLCYVQNHFGPNPTSSSVYPASAGTSLGIQPPTPVNSPGTVYSGALGTPGAAGSKESSRVPMP [RHBDD2] : 52.5
MASKCPKCDKTVYFAEKVSSLGKDWHKFCLKCERCSKTLTPGGHAEHDGKPFCHKPCYATLFGPKGVNIGGAGSYIYEKPLAEGPQVTGPIEVPAARAEERKASGPPKGPSRASSVTTFTGEPNTCPRCSKKVYFAEKVTSLGKDWHRPCLRCERCGKTLTPGGHAEHDGQPYCHKPCYGILFGPKGVNTGAVGSYIYDRDPEGKVQP [CRIP2] : 53.2
MKLLARALRLCEFGRQASSRRLVAGQGCVGPRRGCCAPVQVVGPRADLPPCGACITGRIMRPDDANVAGNVHGGTILKMIEEAGAIISTRHCNSQNGERCVAALARVERTDFLSPMCIGEVAHVSAEITYTSKHSVEVQVNVMSENILTGAKKLTNKATLWYVPLSLKNVDKVLEVPPVVYSRQEQEEEGRKRYEAQKLERMETKWRNGDIVQPVLNPEPNTVSYSQSSLIHLVGPSDCTLHGFVHGGVTMKLMDEVAGIVAARHCKTNIVTASVDAINFHDKIRKGCVITISGRMTFTSNKSMEIEVLVDADPVVDSSQKRYRAASAFFTYVSLSQEGRSLPVPQLVPETEDEKKRFEEGKGRYLQMKAKRQGHAEPQP [ACOT7] : 59.2
MGTKAQVERKLLCLFILAILLCSLALGSVTVHSSEPEVRIPENNPVKLSCAYSGFSSPRVEWKFDQGDTTRLVCYNNKITASYEDRVTFLPTGITFKSVTREDTGTYTCMVSEEGGNSYGEVKVKLIVLVPPSKPTVNIPSSATIGNRAVLTCSEQDGSPPSEYTWFKDGIVMPTNPKSTRAFSNSSYVLNPTTGELVFDPLSASDTGEYSCEARNGYGTPMTSNAVRMEAVERNVGVIVAAVLVTLILLGILVFGIWFAYSRGHFDRTKKGTSSKKVIYSQPSARSEGEFKQTSSFLV [F11R] : 59.5
MEDEMPKTLYVGNLSRDVTEALILQLFSQIGPCKNCKMIMDTAGNDPYCFVEFHEHRHAAAALAAMNGRKIMGKEVKVNWATTPSSQKKDTSSSTVVSTQRSQDHFHVFVGDLSPEITTEDIKAAFAPFGRISDARVVKDMATGKSKGYGFVSFFNKWDAENAIQQMGGQWLGGRQIRTNWATRKPPAPKSTYESNTKQLSYDEVVNQSSPSNCTVYCGGVTSGLTEQLMRQTFSPFGQIMEIRVFPDKGYSFVRFNSHESAAHAIVSVNGTTIEGHVVKCYWGKETLDMINPVQQQNQIGYPQPYGQWGQWYGNAQQIGQYMPNGWQVPAYGMYGQAWNQQGFNQTQSSAPWMGPNYGVQPPQGQNGSMLPNQPSGYRVAGYETQ [TIA1] : 53
MEEIYAKFVSQKISKTRWRPLPPGSLQTAETFATGSWDNEENYISLWSIGDFGNLDSDGGFEGDHQLLCDIRHHGDVMDLQFFDQERIVAASSTGCVTVFLHHPNNQTLSVNQQWTTAHYHTGPGSPSYSSAPCTGVVCNNPEIVTVGEDGRINLFRADHKEAVRTIDNADSSTLHAVTFLRTPEILTVNSIGQLKIWDFRQQGNEPSQILSLTGDRVPLHCVDRHPNQQHVVATGGQDGMLSIWDVRQGTMPVSLLKAHEAEMWEVHFHPSNPEHLFTCSEDGSLWHWDASTDVPEKSSLFHQGGRSSTFLSHSISNQANVHQSVISSWLSTDPAKDRIEITSLLPSRSLSVNTLDVLGPCLVCGTDAEAIYVTRHLFS [NUP43] : 53.1
MGFIFSKSMNESMKNQKEFMLMNARLQLERQLIMQSEMRERQMAMQIAWSREFLKYFGTFFGLAAISLTAGAIKKKKPAFLVPIVPLSFILTYQYDLGYGTLLERMKGEAEDILETEKSKLQLPRGMITFESIEKARKEQSRFFIDK [PLGRKT] : 55.5

Consider the additional sequence presented here.
Inquiry: What measured melting temperature goes with MKPGFSPRGGGFGGRGGFGDRGGRGGRGGFGGGRGRGGGFRGRGRGGGGGGGGGGGGGRGGGGFHSGGNRGRGRGGKRGNQSGKNVMVEPHRHEGVFICRGKEDALVTKNLVPGESVYGEKRVSISEGDDKIEYRAWNPFRSKLAAAILGGVDQIHIKPGAKVLYLGAASGTTVSHVSDIVGPDGLVYAVEFSHRSGRDLINLAKKRTNIIPVIEDARHPHKYRMLIAMVDVIFADVAQPDQTRIVALNAHTFLRNGGHFVISIKANCIDSTASAEAVFASEVKKMQQENMKPQEQLTLEPYERDHAVVVGVYRPPPKVKN [FBL] ?
Reply text: 51.5
